MEASUREMENT NOTES: M. tuberculosis H37Rv growth inhibitors, H37Rv strain (AID 1626);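 note: bacteria incubated seven days before Alamar blue readout; 0% = bacteria only wells and 100% = bacteria with antibiotic wells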
MEASUREMENT CONDITIONS: hits give high values, concentration not given here
Out of some 220,000 compounds screened, about 2,000 (0.91%) were called active. Not shown: some 2% with an inconclusive outcome. These entries were drawn from the full list. Measured potencies and affinities stand elsewhere.
ASSAY ENDPOINT: inhibition (%)

{"QUERY SMILES": "COc1ccc(CNC(=O)/C=C/c2ccc(OCCCF)cc2)cc1", "UNITS TEXT": "%", "ENDPOINT VALUE": 11.3}
{"QUERY SMILES": "Cc1c(Cc2ccccc2)c(NCCN(C)C)n2c(nc3ccccc32)c1C#N", "UNITS TEXT": "%", "ENDPOINT VALUE": -1.57}
{"QUERY SMILES": "O=C(NCCN1CCCCC1)Nc1ccc(F)c(Cl)c1", "UNITS TEXT": "%", "ENDPOINT VALUE": -6.79}
{"QUERY SMILES": "COc1ccc(Cc2nnc(SCC(=O)N3CCCCC3)o2)cc1", "UNITS TEXT": "%", "ENDPOINT VALUE": 3.26}
{"QUERY SMILES": "COc1ccc(CCNC(=O)Cc2nn(C)c(=O)c3ccccc23)cc1OC", "UNITS TEXT": "%", "ENDPOINT VALUE": 1}
{"QUERY SMILES": "CCc1c(C)c(C#N)c2nc3ccccc3n2c1N(C)C", "UNITS TEXT": "%", "ENDPOINT VALUE": -1.31}
{"QUERY SMILES": "CN(C)CCOc1ccc(/C(=C(/CCCl)c2ccccc2)c2ccccc2)cc1", "UNITS TEXT": "%", "ENDPOINT VALUE": 59.6}
{"QUERY SMILES": "c1ccc2c(c1)NC1(CCCCCC1)n1c-2nc2ccccc21", "UNITS TEXT": "%", "ENDPOINT VALUE": -3.46}
{"QUERY SMILES": "Cc1cc2nc(N)sc2cc1[N+](=O)[O-]", "UNITS TEXT": "%", "ENDPOINT VALUE": -4.98}
{"QUERY SMILES": "c1ccc(-c2ccc(CN3CCN(c4ncccn4)CC3)cc2)cc1", "UNITS TEXT": "%", "ENDPOINT VALUE": -1.29}
{"QUERY SMILES": "CCN(CC)CCOc1ccc(/C(=C(/Cl)c2ccccc2)c2ccccc2)cc1", "UNITS TEXT": "%", "ENDPOINT VALUE": 41}

====

MEASUREMENT NOTES: M. tuberculosis H37Rv growth inhibitors, H37Rv strain (AID 1626);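 note: bacteria incubated seven days before Alamar blue readout; 0% = bacteria only wells and 100% = bacteria with antibiotic wells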
MEASUREMENT CONDITIONS: hits give high values, concentration not given here
The campaign covered roughly 220,000 compounds. About 2,000 (0.91%) were called active. Roughly 2% stayed inconclusive and do not appear here. These entries were drawn from the full list. Measured potencies and affinities stand elsewhere.
Listing of recorded inhibition by entry.

{"COMPOUND": "Cc1ccc(-c2noc(CCC(=O)Nc3ccccc3C)n2)cc1", "inhibition (%)": 13.8}
{"COMPOUND": "CCN1CCN(Cc2ccc(NC(=O)c3ccc(C)c(NC(=O)c4ccc5n[nH]nc5c4)c3)cc2C(F)(F)F)CC1", "inhibition (%)": -11}
{"COMPOUND": "O=C(O)CCC(=O)Nc1ccccc1C(=O)NCc1ccccc1", "inhibition (%)": -4.2}
{"COMPOUND": "CCOC(=O)c1cccc(NC(=O)CCc2nc(-c3ccccc3F)no2)c1", "inhibition (%)": 66.8}
{"COMPOUND": "Cc1nc(/N=C(\\N)Nc2ccccc2)nc2ccccc12", "inhibition (%)": -4.15}
{"COMPOUND": "COc1ccc(-c2noc(CCCC(=O)Nc3ccc(C(N)=O)cc3)n2)cc1", "inhibition (%)": -9.14}
{"COMPOUND": "CCCC(=O)N/C(N)=N/c1nc(C)c2cc(C)ccc2n1", "inhibition (%)": 31.5}
{"COMPOUND": "COC(=O)c1cccc(NC(N)=S)c1", "inhibition (%)": 2.04}
{"COMPOUND": "CCN1CCN(Cc2ccc(NC(=O)c3ccc(C)c(NC(=O)c4ccnnc4)c3)cc2C(F)(F)F)CC1", "inhibition (%)": -3.04}
{"COMPOUND": "CCCNC(=O)C1CC(=O)N(c2ccc(OCC(=O)Nc3cc(C)cc(C)c3)cc2)C1 (stereo unspecified)", "inhibition (%)": -2.31}
{"COMPOUND": "NC(=O)Oc1cccc(OC(N)=O)c1", "inhibition (%)": -7.05}
